Origin of values: paper PMC7822874

Test Name: Parallel artificial membrane permeability assay (PAMPA)
Type: in vitro ADME
Measurement Conditions: PAMPA
Experimental: Pharmacokinetic modeling experiments, parallel artificial membrane permeability assay (PAMPA), solubility, and rat liver microsome stability assessment were performed on all synthetic compounds, as previously described[73]–[75].
Observation Type: Papp

Task item: For CCCN1C(CC2CCCCC2)=NS(=O)(=O)c2cc(NC(=O)c3cccs3)ccc21 , what is its reported Papp?
Reply: < 500 ×10⁻⁶ cm/s

====

Tested on: HepG2-A16-CD81EGFP cells
Measurement Conditions: HepG2, 1 µM compound treatment (10 mM stocks), replicate 2, normalized, average of 2 wells
Observation Type: HepG2 1uM growth rep2
Field: value (include unit after the number)

Record excerpt, results attached:
>>> endpoint_value("Cc1cc(N2CCN(C3CCCC3)CC2)n2c(nc3ccccc32)c1C#N")
"87%"
>>> endpoint_value("CC(C)CCN(CCC(C)C)CC(O)Cn1c2ccccc2c(=O)c2ccccc21 (stereo not drawn)")
"96%"
>>> endpoint_value("COc1cccc(-c2c(C#N)c(N)nc3c2c(C)nn3-c2ccccc2)c1O")
"95%"
>>> endpoint_value("COc1ccc(Nc2cc(C)nc(NCc3ccccc3)n2)cc1")
"91%"
>>> endpoint_value("Nc1nonc1-n1nnc(C(=O)N/N=C/c2ccc(Br)cc2)c1-c1ccc2c(c1)OCO2")
"88%"
>>> endpoint_value("Cc1ccc(Nc2cc(C)nc(NCc3ccccc3)n2)cc1")
"84%"
>>> endpoint_value("Cc1ccnc(NC(=O)c2cccc(S(=O)(=O)N3CCCc4ccccc43)c2)c1")
"95%"
>>> endpoint_value("Cc1ccc(Nc2cc(C)c3ccc(O)cc3n2)cc1C.Cl")
"92%"

Okay, now this compound:
Task item: For COc1cccc2sc(N3CCN(C(=O)c4ccc([N+](=O)[O-])o4)CC3)nc12 , what is its reported HepG2 1uM growth rep2?
Reply: 96%

====

System: HepG2
Measurement Conditions: human, hepg2 cells, 48 h
This section presents compounds with their documented Log AC50 (M) values.

Record excerpt, results attached:
>>> endpoint_value("COc1cc(NC(=O)Cn2c(N(C)Cc3ccccc3)nc(C)cc2=O)cc(OC)c1 [NCGC00432301-01]")
"-4.3643 M"
>>> endpoint_value("CCN(CC)CCNC(=O)c1ccc(NC(=O)c2ccc(S(=O)(=O)N3CCCCCC3)cc2)cc1 [MLS001157553-01]")
"-4.4643 M"
>>> endpoint_value("CCCC1=Nc2cc(C(=O)NCCCN3CCCCC3CC)ccc2Sc2ccc(C)cc21 (centres unmarked) [NCGC00424661-01]")
"-4.3643 M"

Task item: Request - read-out Log AC50 (M) | tested on HepG2 | compound CN(C)CCCNc1cc(N2CCN(C3CCCCC3)CC2)c2noc3c2c1C(=O)c1ccccc1-3 [NCGC00111069-01]
Reply: -4.4143 M

====

Test Name: in vitro
Measurement Conditions: human, hepg2-a16-cd81egfp cells, % viability
Observation Type: viability at 3 µM (%)
Quick note: give the figure in %, leave out the unit.

Record excerpt, results attached:
>>> endpoint_value("Cc1cc(Nc2ccc(Br)c(C)c2)n2nc(C)nc2n1 [MLS000116638]")
87.3
>>> endpoint_value("CN(C)c1nc(-c2ccccn2)nnc1-c1ccccc1 [MLS000541553]")
86.2
>>> endpoint_value("OC(c1ccc(Cl)cc1)C(CN1CCOCC1)c1ccccc1 (stereo not drawn) [MLS001173582]")
99.6

Task item: For CCc1ccccc1OC[C@@H](O)CN[C@H]1CCCc2ccccc21 [MLS002172481] , what is its reported viability at 3 µM?
Reply: 97.6

Task item: Further, for O=C(CCc1ccccc1)NC(c1cccs1)c1cc(Cl)c2cccnc2c1O (stereo not drawn) [MLS000703748] ?
Reply: 54

Task item: Further, for COc1ccc(CCC(=O)N2Cc3ccccc3OC3(CCN(C)CC3)C2)cc1 [NCGC00456460] ?
Reply: 106

Task item: Further, for COc1ccccc1[C@@]1(C)ON(c2ccccc2C(F)(F)F)C1=O [MLS002206613] ?
Reply: 88.4

Task item: Further, for COc1ccc2cc3cc(C(=O)NCC4CCCO4)oc3nc2c1 (stereo not drawn) [MLS000091914] ?
Reply: 106

Task item: Further, for COc1ccc(C2Sc3ccccc3N=C3C2=C(O)c2ccccc23)c(OC)c1OC (stereo not drawn) [NCGC00108825] ?
Reply: 43.7
